For each entry below, report its Test G disease control rating value.
test system: Septoria tritici; test: Test G: wheat leaf blotch, preventive spray on wheat seedlings, visual disease rating; settings: wheat leaf blotch, sprayed the day before inoculation; 100 = 100% disease control, 0 = no disease control relative to controls
Numbers only, in %.

Cc1nn(C)c(Nc2ccc(F)cc2Cl)c1-c1ccc(C#N)cc1Cl: 100
Cc1nn(C)c(Nc2ccc(F)cc2Cl)c1-c1c(Cl)cccc1Cl: 100

Lab note: measured Test G disease control rating of Cc1nn(C)c(Nc2ccc(F)cc2Br)c1-c1ccc(F)cc1Br was 100

* * *

system: Botrytis cinerea; assay: Test B: tomato Botrytis, preventive spray on tomato seedlings, visual disease rating; conditions: tomato Botrytis; 100 = 100% disease control, 0 = no control relative to controls
Measure: Test B rating (% disease control) (%)
Answers are plain numbers, in %.

Cc1nn(C)c(Oc2c(F)cc(C#N)cc2F)c1-c1cc(F)ccc1Cl: 100
Cc1ccc(Oc2c(-c3c(F)cc(F)cc3F)c(C)nn2C)cc1C#N: 98
Cc1ccc(Oc2c(-c3c(F)cc(F)cc3F)c(C)nn2C)cc1C: 0

Batch of 2 compounds: report Test B rating (% disease control) for each.
1. Cc1nn(C)c(Nc2c(F)cc(C#N)cc2F)c1-c1ccc(F)cc1F
2. Cc1nn(C)c(Oc2ncc(C(F)(F)F)cc2F)c1-c1ccc(F)cc1Br

1. 100
2. 0

// provenance: patent US10448639B2
